test: Times to onset, minimal and maximal, observed in the indexed observations. [column 'DELAI' in source]; conditions: human
Hepatotoxicity (time to onset) for assorted compounds
readout type: Hepatotoxicity (time to onset)

compound | readout type | meas value
c1ccc2c(CCC3CCNCC3)c[nH]c2c1 [INDALPINE] | Hepatotoxicity (time to onset) | 25 days - 4 months
CC(=O)c1ccc(S(=O)(=O)NC(=O)NC2CCCCC2)cc1 [ACETOHEXAMIDE] | Hepatotoxicity (time to onset) | 3 weeks - 17 months
CN(CCOc1ccc(CC2SC(=O)NC2=O)cc1)c1ccccn1 (stereo not given) [ROSIGLITAZONE] | Hepatotoxicity (time to onset) | 1 week - 4 years
O=C(O)c1ccccc1O.O=C(O)c1ccccc1O.O=C(O)c1ccccc1O | Hepatotoxicity (time to onset) | 3 days
NCCCC(O)(P(=O)(O)O)P(=O)(O)O [ALENDRONIC ACID] | Hepatotoxicity (time to onset) | 2 months - 6 months
